system: 786-0; experiment: NCI tumour cell line growth inhibition, 48 h
Calls of active or inactive are those of the source. Cut-off read from the data, not from the text of the source: active = GI50 up to about 1.1 µM and inactive = higher.
Thanks in advance; please answer with one of these: active, inactive

Compound: CC(C)c1ccc(O)c(Cc2cc(C(C)C)cc(Cc3cc(C(C)C)ccc3O)c2O)c1
System: 786-0
Label Class: inactive
//
Compound: Cn1c(=S)c2nc(SCCN3CCCC3)[nH]c2n(C)c1=O
System: 786-0
Label Class: inactive
//
Compound: COC(=O)NCCc1n[nH]c2c1C(=O)C=C(Nc1ccccc1)C2=O
System: 786-0
Label Class: inactive
//
Compound: C=C(C)[C@]12CC(C)C34OC(/C=C\C=C\CCCCCCCCC)(O[C@@H]1[C@@H]3[C@@H]1O[C@]1(CO)[C@@H](O)[C@]1(O)C(=O)C(C)=C[C@@H]41)O2 (some centres undefined)
System: 786-0
Label Class: inactive
//
Compound: C=C/C=C(\NC(=O)C(Cl)(Cl)Cl)[Si](C)(C)C
System: 786-0
Label Class: inactive

Assay outcome for COC1=CC(=O)C[C@@H](C)[C@]12Oc1c(Cl)c(OC)cc(OC)c1C2=O : what was it? inactive

Assay outcome for COC(=O)c1ccc(C=C(C#N)C#N)cc1 : what was it? inactive
